Target: γ-secretase (Homo sapiens, UniProt P49768)
Construct: endogenous in cells; host or cells: SKNBE2 cells carrying APP 695 wild type
Assay: Screening for γ-secretase-modulating activity in SKNBE2 cells carrying the APP 695 wild type
Assay type: cell-based
Settings: 0.3 μM; SKNBE2 cells carrying APP 695 wild type
# binarize inhibition at 0.3 µM: threshold 7% inclusive, high side satisfied, low side not satisfied

CC(C)CC(C(=O)O)c1cc(-c2ccc(C(F)(F)F)cc2)cc(N(C)c2ccc(F)cc2C(F)(F)F)c1 (stereo not drawn) : satisfied
CC(C)CC(C(=O)O)c1cc(-c2ccc(C(F)(F)F)cc2)cc(N(C)c2cc[n+](C)cc2)c1 (stereo not drawn) : satisfied
CC(C)CC(C(=O)O)c1cc(-c2ccc(C(F)(F)F)cc2)cc(N(C)c2ccc(C(F)(F)F)cc2)c1 (stereo not drawn) : satisfied
CC(C)C[C@@H](C(=O)O)c1cc(NCc2ccc(C#N)cc2)cc(-c2ccc(C(F)(F)F)cc2)c1 : not satisfied
CC(C)CC(C(=O)O)c1cc(NC2CCCc3ccccc32)cc(-c2ccc(C(F)(F)F)cc2)c1 (stereo not drawn) : satisfied

# input Test whether the compound CC(C)CC(=O)N(c1ccc(Cl)cc1)c1cc(-c2ccc(C(F)(F)F)cc2)cc(C(CC(C)C)C(=O)O)c1 (stereo not drawn) records inhibition at 0.3 µM of 7% or higher.
# output satisfied

# input Test whether the compound CC(C)CCC(Nc1cc(CC(=O)O)cc(-c2ccc(C(F)(F)F)cc2)c1)c1cc(F)cc(F)c1 (stereo not drawn) records inhibition at 0.3 µM of 7% or higher.
# output satisfied

---

Biological target: γ-secretase (Homo sapiens, UniProt P49768)
Construct: endogenous in cells
Test: Screening for γ-secretase-modulating activity in SKNBE2 cells carrying the APP 695 wild type
Conditions: SKNBE2 cells carrying APP 695 wild type
Measured Metric: EC50 (nM)
One number for each entry, in nM.

Before answering, review these 5 worked examples.
CC(C)CCN(Cc1ccc(C(C)(C)C)cc1)c1cc(-c2ccc(C(F)(F)F)cc2)cc(C(CC(C)C)C(=O)O)c1 (centres unmarked) : 580
CC(C)CCN(Cc1ccc(C(F)(F)F)cc1)Cc1cc(-c2ccc(C(F)(F)F)cc2)cc(C(CC(C)C)C(=O)O)c1 (centres unmarked) : 220
CC(C)CC(C(=O)O)c1cc(-c2ccc(C(F)(F)F)cc2)cc(N(C)c2cc(C(F)(F)F)cc(C(F)(F)F)c2)c1 (centres unmarked) : 190
CC(C)CC(C(=O)O)c1cc(-c2ccc(Cl)c(C(F)(F)F)c2)cc(N(C)c2cc(C(F)(F)F)cc(C(F)(F)F)c2)c1 (centres unmarked) : 480
CC(C)CC(C(=O)O)c1cc(-c2ccc(C(F)(F)F)cc2)cc(N(C)c2ccc(Cl)cc2)c1 (centres unmarked) [Example 1] : 620

Provide EC50 values for the following items, in order.
1. CC(C)CC(C(=O)O)c1cc(-c2cc(F)cc(C(F)(F)F)c2)cc(N(C)c2cc(C(F)(F)F)cc(C(F)(F)F)c2)c1 (centres unmarked)
2. CC(C)CCC(Nc1cc(-c2ccc(C(F)(F)F)cc2)cc(C(CC(C)C)C(=O)O)c1)c1ccc(C(F)(F)F)cc1 (centres unmarked)
3. CC(C)CC(C(=O)O)c1cc(-c2ccc(C(F)(F)F)cc2)cc(N(C)c2ccc(Cl)cc2)c1 (single isomer, unassigned) [Example 21]
4. CC(C)CCN(Cc1ccc(F)cc1)Cc1cc(-c2ccc(C(F)(F)F)cc2)cc(C(CC(C)C)C(=O)O)c1 (centres unmarked)

# output
1: 600; 2: 270; 3: 1130; 4: 130

Provide EC50 values for the following items, in order.
1. CC(C)CC(C(=O)O)c1cc(-c2ccc(C(F)(F)F)cc2)cc(N2CCCc3ccc(C(F)(F)F)cc32)c1 (centres unmarked)
2. CC(C)CCN(c1cc(-c2ccc(C(F)(F)F)cc2)cc(C(CC(C)C)C(=O)O)c1)c1cccc(C(F)(F)F)c1 (centres unmarked)
3. CC(C)CCN(Cc1ccc(OC(F)(F)F)cc1)c1cc(-c2ccc(C(F)(F)F)cc2)cc([C@@H](CC(C)C)C(=O)O)c1

# output
360
260
640

Provide EC50 values for the following items, in order.
1. CC(C)CCN(c1ccc(C(F)(F)F)cc1)c1cc(-c2ccc(C(F)(F)F)cc2)cc(C(CC(C)C)C(=O)O)c1 (centres unmarked)
2. CC(C)CC(C(=O)O)c1cc(-c2ccc(C(F)(F)F)cc2)cc(N(C)c2cc(F)cc(F)c2)c1 (centres unmarked)

# output
170
450

---

Target: γ-secretase (Homo sapiens)
Construct: endogenous in cells; host or cells: SKNBE2 cells carrying APP 695 wild type
Assay: Screening for γ-secretase-modulating activity in SKNBE2 cells carrying the APP 695 wild type
Type: cell-based
Settings: SKNBE2 cells carrying APP 695 wild type
EC50 vs 200 nM: less than gives 1.0; not less than gives 0.0.

Take a look at these entries with their results.
CC(C)CCN(Cc1cc(-c2ccc(C(F)(F)F)cc2)cc([C@@H](CC(C)C)C(=O)O)c1)Cc1ccc(F)c(F)c1 (stereo in doubt) : 1.0
CC(C)CCN(Cc1cc(-c2ccc(C(F)(F)F)cc2)cc(C(CC(C)C)C(=O)O)c1)Cc1cc(F)c(F)c(F)c1 (stereo not drawn) : 0.0
CC(C)CCC(Nc1cc(-c2ccc(C(F)(F)F)cc2)cc(C(CC(C)C)C(=O)O)c1)c1cc(F)c(F)c(F)c1 (stereo not drawn) : 0.0
CC(C)CCN(Cc1cc(-c2ccc(C(F)(F)F)cc2)cc(C(CC(C)C)C(=O)O)c1)Cc1ccc(F)cc1C(F)(F)F (stereo not drawn) : 0.0
CC(C)CC(C(=O)O)c1cc(-c2ccc(C(F)(F)F)cc2)cc(N(C)c2ccc(Cl)c(C(F)(F)F)c2)c1 (stereo not drawn) : 0.0

Now consider a different compound.
# input Report whether reported EC50 is lower than 200 nM (strictly) for CC(C)CCC(Nc1cc(-c2ccc(C(F)(F)F)cc2)cc(C(CC(C)C)C(=O)O)c1)c1cc(C(F)(F)F)cc(C(F)(F)F)c1 (stereo not drawn)
# output 0.0

---

Biological target: γ-secretase (Homo sapiens, UniProt P49768)
Construct: endogenous in cells
Assay: Screening for γ-secretase-modulating activity in SKNBE2 cells carrying the APP 695 wild type
Conditions: SKNBE2 cells carrying APP 695 wild type
Experimental: Screening of the Compounds of the Invention for γ-Secretase-Modulating Activity Screening was carried out using SKNBE2 cells carrying the APP 695—wild type, grown in DMEM/NUT-mix F12 (HAM) provided by Gibco (cat no. 31330-38) containing 5% Serum/Fe supplemented with 1% non-essential amino acids. Cells were grown to near confluency. The screening was performed using the assay as described in Citron et al (1997) Nature Medicine 3: 67.
Measured Metric: EC50 (µM)
Numbers only, in µM.

Before answering, review these 2 worked examples.
CC(C)CCN(Cc1cc(C(F)(F)F)cc(C(F)(F)F)c1)c1cc(-c2ccc(C(F)(F)F)cc2)cc([C@@H](CC(C)C)C(=O)O)c1 [Compound 49] : 0.22
CC(C)CCN(Cc1ccc(C(F)(F)F)cc1)c1cc(-c2ccc(C(F)(F)F)cc2)cc(C(CC(C)C)C(=O)O)c1 (stereo not drawn) [Compound 45] : 0.58

Next, consider the following molecule.
The reported EC50 of the molecule CC(C)CCC(Nc1cc(-c2ccc(C(F)(F)F)cc2)cc(C(CC(C)C)C(=O)O)c1)c1cc(F)cc(F)c1 (stereo not drawn) [Compound 29] was 0.3

---

Molecular target: γ-secretase (Homo sapiens, UniProt P49768)
Construct: endogenous in cells; host or cells: SKNBE2 cells carrying APP 695 wild type
Assay: Screening for γ-secretase-modulating activity in SKNBE2 cells carrying the APP 695 wild type
Format: cell-based
Settings: SKNBE2 cells carrying APP 695 wild type
Measured Metric: pEC50
One number for each entry, as −log10 of the molar value.

Before answering, review these 5 worked examples.
CC(C)CC(C(=O)O)c1cc(NCc2ccc(F)cc2C(F)(F)F)cc(-c2ccc(C(F)(F)F)cc2)c1 (stereo not shown) : 6.19
CC(C)CC(C(=O)O)c1cc(-c2ccc(C(F)(F)F)cc2)cc(N(C)c2cccc(C(F)(F)F)c2)c1 (stereo not shown) : 6.66
CC(C)CC(C(=O)O)c1cc(-c2ccc(C(F)(F)F)cc2)cc(N(C)c2ccc(C(F)(F)F)nc2)c1 (stereo not shown) : 6.07
CC(C)CCN(Cc1cc(F)cc(F)c1)c1cc(-c2ccc(C(F)(F)F)cc2)cc([C@@H](CC(C)C)C(=O)O)c1 : 6.72
CC(C)CCN(c1ccc(Cl)cc1)c1cc(-c2ccc(C(F)(F)F)cc2)cc(C(CC(C)C)C(=O)O)c1 (stereo not shown) : 6.82

Provide pEC50 values for the following items, in order.
1. CC(C)CC(C(=O)O)c1cc(-c2ccc(C(F)(F)F)cc2)cc(N(C)c2cc(C(F)(F)F)ccc2C(F)(F)F)c1 (stereo not shown)
2. CC(C)CCN(Cc1cc(F)cc(F)c1)Cc1cc(-c2ccc(C(F)(F)F)cc2)cc(C(CC(C)C)C(=O)O)c1 (stereo not shown)

# output
[6.80, 6.62]

The measured values listed here are drawn from patent US8247610B2.
